- Target Of Assay: Human recombinant PDE2A (hPDE2A) (Homo sapiens, UniProt O00408)
- Construct: His tag (inferred from metal chelate purification); made in house; host or cells: Sf9 insect cells (baculovirus)
- Sequence (O00408 whole entry): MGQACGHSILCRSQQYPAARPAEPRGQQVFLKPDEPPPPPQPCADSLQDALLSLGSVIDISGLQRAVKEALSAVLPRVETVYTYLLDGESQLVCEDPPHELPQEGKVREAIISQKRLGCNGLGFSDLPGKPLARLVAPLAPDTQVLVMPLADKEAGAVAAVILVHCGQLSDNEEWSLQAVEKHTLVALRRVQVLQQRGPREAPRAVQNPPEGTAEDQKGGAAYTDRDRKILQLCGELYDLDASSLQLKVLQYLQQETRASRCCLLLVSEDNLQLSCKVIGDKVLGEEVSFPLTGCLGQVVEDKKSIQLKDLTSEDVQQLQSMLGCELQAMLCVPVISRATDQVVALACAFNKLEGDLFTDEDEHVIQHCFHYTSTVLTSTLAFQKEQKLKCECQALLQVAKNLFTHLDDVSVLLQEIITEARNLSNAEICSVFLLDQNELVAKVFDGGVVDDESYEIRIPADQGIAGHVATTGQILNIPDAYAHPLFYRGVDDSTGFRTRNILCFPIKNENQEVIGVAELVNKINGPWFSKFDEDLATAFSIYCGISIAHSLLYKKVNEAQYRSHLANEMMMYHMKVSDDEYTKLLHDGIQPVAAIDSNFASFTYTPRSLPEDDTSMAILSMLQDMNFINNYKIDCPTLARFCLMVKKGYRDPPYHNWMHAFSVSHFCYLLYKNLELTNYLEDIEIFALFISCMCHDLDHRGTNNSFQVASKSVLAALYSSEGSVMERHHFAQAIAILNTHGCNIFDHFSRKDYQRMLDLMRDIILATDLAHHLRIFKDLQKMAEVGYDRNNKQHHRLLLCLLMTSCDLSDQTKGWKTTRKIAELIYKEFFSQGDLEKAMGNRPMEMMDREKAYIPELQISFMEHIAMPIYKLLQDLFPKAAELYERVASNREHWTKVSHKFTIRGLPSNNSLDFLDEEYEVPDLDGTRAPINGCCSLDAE
- Assay: In vitro assay PDE2A (SPA, 3H-cGMP hydrolysis)
- Assay type: biochemical
- Condition Parameters: human recombinant PDE2A; read-out: hPDE2A Emax
Property Measured: Emax (%)

a. Cc1cc(C(=O)N2CC[C@@H](C)[C@H](c3cc(C(F)F)nc4ncnn34)C2)cc(OC(C)C)n1
b. Cc1csc(C(=O)N2CCC[C@](C)(c3cc(C(F)F)nc4ncnn34)C2)c1 (single isomer, unassigned)
Please let me know which one, a or b , has a lower measured Emax value. Respond using the label that marks the chosen record.
b

====

- Target Of Assay: Human recombinant PDE2A (hPDE2A) (Homo sapiens)
- Construct: His tag (inferred from metal chelate purification); made in house; host or cells: Sf9 insect cells (baculovirus)
- Assay: In vitro assay PDE2A (SPA, 3H-cGMP hydrolysis)
- Assay type: biochemical
- Condition Parameters: human recombinant PDE2A, 10 μM cGMP substrate; read-out: hPDE2A pIC50 (converted)
Property Measured: IC50 (nM)

molecule=COc1ncc(C(=O)N2CC[C@@H](C)[C@H](c3cc(C(F)F)nc4ncnn34)C2)cc1C1CC1 property_measured=IC50 val=1.95

1. Cc1cc(C(=O)N2CC[C@@H](C)[C@H](c3cc(C(F)F)nc4ncnn34)C2)cnc1C
2. Cc1nn(C)cc1C(=O)N1CC[C@@H](C)[C@H](c2cc(C(F)F)nc3ncnn23)C1
Which item exceeds the other in IC50, 1 or 2 ? Response format: the label of the selected entry.
2

1. COc1cc(C(=O)N2CC[C@@H](C)[C@H](c3cc(C(F)F)nc4ncnn34)C2)ccc1F
2. Cc1cc(C(=O)N2CC[C@@H](C)[C@H](c3cc(C(F)F)nc4ncnn34)C2)cc(OC(C)C)n1
3. C[C@@H]1CCN(C(=O)c2cccnc2N)C[C@H]1c1cc(C(F)F)nc2ncnn12
4. Cc1ccc(C(=O)N2CCC[C@](C)(c3cc(C(F)F)nc4ncnn34)C2)c(C)n1 (single isomer, unassigned)
# desc sort on IC50 across 4 molecules In plain terms: list the labels in the order you were asked to.
4, 3, 1, 2
(4: 617 nM, 3: 39.8 nM, 1: 4.47 nM, 2: 0.912 nM)

P. Cc1cc(C(=O)N2CC[C@@H](C)[C@H](c3cc(C(F)F)nc4ncnn34)C2)c(Cl)cn1
Q. Cc1cc(C(=O)N2CC[C@@H](C)[C@H](c3cc(C(F)F)nc4ncnn34)C2)c(C)s1
R. C[C@@H]1CCN(C(=O)c2cn(C)cn2)C[C@H]1c1cc(C(F)F)nc2ncnn12
Arrange items by their IC50 values in increasing order. Note for the reader: the ranking is given by listing the labels in the order requested.
Q, P, R
(Q: 1.26 nM, P: 5.5 nM, R: 24.5 nM)

====

- Target Of Assay: Human recombinant PDE10A (hPDE10A) (Homo sapiens)
- Construct: His tag (inferred from metal chelate purification); made in house; host or cells: Sf9 insect cells (baculovirus)
- Sequence (Q9Y233 267-1055): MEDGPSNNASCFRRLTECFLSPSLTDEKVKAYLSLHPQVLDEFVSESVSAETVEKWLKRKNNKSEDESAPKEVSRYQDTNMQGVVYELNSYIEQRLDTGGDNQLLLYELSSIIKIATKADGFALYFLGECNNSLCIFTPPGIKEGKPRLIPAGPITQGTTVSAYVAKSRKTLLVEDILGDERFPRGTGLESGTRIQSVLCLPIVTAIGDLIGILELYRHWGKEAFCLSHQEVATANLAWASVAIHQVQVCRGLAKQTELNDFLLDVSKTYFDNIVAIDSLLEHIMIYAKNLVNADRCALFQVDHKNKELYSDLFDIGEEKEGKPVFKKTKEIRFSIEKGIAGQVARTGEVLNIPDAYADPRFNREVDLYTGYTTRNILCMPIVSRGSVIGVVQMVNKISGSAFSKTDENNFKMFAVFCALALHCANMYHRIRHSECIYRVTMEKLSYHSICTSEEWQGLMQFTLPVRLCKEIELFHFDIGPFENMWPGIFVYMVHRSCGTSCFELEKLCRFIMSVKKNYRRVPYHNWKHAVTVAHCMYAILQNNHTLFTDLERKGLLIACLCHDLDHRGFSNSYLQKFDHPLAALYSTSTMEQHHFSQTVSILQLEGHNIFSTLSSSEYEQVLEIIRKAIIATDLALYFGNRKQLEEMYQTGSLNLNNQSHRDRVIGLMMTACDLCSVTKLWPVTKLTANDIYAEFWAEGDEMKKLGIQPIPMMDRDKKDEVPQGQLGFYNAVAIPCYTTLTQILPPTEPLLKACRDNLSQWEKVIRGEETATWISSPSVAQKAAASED
- Assay: In vitro assay PDE10A, human clone (SPA, 3H-cAMP hydrolysis)
- Format: biochemical
- Condition Parameters: human clone by default (no (r) mark); read-out: hPDE10A2 or rPDE10A2 pIC50 (converted)
Property Measured: IC50 (nM)

P. C[C@@H]1CCN(C(=O)c2ccc3ncsc3c2)C[C@H]1c1cc(C(F)F)nc2ncnn12 [Compound 228]
Q. COc1nc(C)cc(C(=O)N2CC[C@@H](C)[C@H](c3cc(C(F)F)nc4ncnn34)C2)c1F [Compound 282]
Could you determine which record has the numerically smaller IC50? Candidates: P and Q // output: label of the selected item
P

I. Cc1cc([C@@H]2CN(C(=O)c3cc(Cl)ncc3C(F)(F)F)CC[C@H]2C)n2ncnc2n1 [Compound 270]
II. Cc1ncc(C(=O)N2CC[C@@H](C)[C@H](c3cc(C(F)F)nc4ncnn34)C2)cn1 [Compound 244]
Of I and II , which carries the smaller reported IC50 figure? Select an item and report its label.
I

I. Cc1cc(C(=O)N2CC[C@@H](C)[C@H](c3cc(C(F)F)nc4ncnn34)C2)c(F)c(OC2CC2)n1 [Compound 392]
II. Cc1cc([C@@H]2CN(C(=O)c3cc(C4CC4)ncc3C3CC3)CC[C@H]2C)n2ncnc2n1 [Compound 390]
III. COCc1cc(C(=O)N2CC[C@@H](C)[C@H](c3cc(C(F)F)nc4ncnn34)C2)cc(C)n1 [Compound 288]
Sort ascending by IC50. Use the labels to give the ranking in the order requested.
II, I, III

====

- Target Of Assay: Human recombinant PDE3A (hPDE3A) (Homo sapiens)
- Construct: purchased Scottish Biomedical; host or cells: Sf9 insect cells
- Sequence (Q14432 whole entry): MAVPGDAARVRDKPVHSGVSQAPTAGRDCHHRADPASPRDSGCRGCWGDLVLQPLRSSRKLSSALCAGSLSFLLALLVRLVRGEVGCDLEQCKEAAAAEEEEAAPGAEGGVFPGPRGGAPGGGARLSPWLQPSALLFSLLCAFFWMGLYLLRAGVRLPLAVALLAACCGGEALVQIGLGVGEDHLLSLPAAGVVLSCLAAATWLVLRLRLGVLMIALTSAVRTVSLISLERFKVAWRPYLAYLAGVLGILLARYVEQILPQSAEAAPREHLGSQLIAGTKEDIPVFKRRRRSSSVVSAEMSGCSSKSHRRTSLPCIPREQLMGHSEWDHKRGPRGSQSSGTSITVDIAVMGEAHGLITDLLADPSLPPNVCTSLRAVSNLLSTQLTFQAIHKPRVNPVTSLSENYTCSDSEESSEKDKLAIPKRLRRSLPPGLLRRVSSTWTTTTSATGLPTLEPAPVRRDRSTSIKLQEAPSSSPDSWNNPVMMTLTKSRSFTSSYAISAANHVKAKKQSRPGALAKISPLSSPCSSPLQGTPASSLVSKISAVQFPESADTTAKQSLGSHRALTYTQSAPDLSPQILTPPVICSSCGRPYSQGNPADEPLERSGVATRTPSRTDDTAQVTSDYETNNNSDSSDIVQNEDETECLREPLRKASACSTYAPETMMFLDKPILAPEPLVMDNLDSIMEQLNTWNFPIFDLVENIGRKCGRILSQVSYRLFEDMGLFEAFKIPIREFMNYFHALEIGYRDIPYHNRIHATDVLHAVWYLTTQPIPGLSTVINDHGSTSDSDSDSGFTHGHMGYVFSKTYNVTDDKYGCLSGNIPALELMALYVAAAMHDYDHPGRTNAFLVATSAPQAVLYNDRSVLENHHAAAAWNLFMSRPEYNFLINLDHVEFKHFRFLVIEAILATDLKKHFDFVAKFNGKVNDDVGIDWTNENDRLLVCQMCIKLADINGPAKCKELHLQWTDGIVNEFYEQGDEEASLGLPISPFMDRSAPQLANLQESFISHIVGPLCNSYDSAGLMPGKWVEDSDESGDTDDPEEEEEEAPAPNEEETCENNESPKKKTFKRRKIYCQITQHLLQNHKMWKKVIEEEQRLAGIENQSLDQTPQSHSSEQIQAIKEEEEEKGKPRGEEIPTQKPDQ
- Assay: In vitro assay PDE3A (SPA, 3H-cAMP hydrolysis);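 further: the method names PDE3A and the table heading PDE3B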
- Format: biochemical
- Condition Parameters: hPDE3B pIC50; read-out: pIC50 (converted)
Property Measured: IC50

Some compounds with recorded IC50:
compound="C[C@@H]1CCN(C(=O)c2ccn(C)c2)C[C@H]1c1cc(C(F)F)nc2ncnn12 [Compound 67]" target_of_assay="Human recombinant PDE3A (hPDE3A) (Homo sapiens)" property_measured=IC50 val="> 10 µM"
compound="C[C@@H]1CCN(C(=O)c2ccnn2C)C[C@H]1c1cc(C(F)F)nc2ncnn12 [Compound 57]" target_of_assay="Human recombinant PDE3A (hPDE3A) (Homo sapiens)" property_measured=IC50 val="> 10 µM"

Under Human recombinant PDE3A (hPDE3A) (Homo sapiens): report IC50 of C[C@@H]1CCN(C(=O)c2ccc(Cl)cn2)C[C@H]1c1cc(C(F)F)nc2ncnn12 [Compound 154] .
> 10 µM

Provide Human recombinant PDE3A (hPDE3A) (Homo sapiens) IC50 reading for C[C@@H]1CCN(C(=O)c2ccnc(Cl)c2)C[C@H]1c1cc(C(F)F)nc2ncnn12 [Compound 42] .
> 10 µM

Please look at C[C@H]1CCN(C(=O)c2ccc3ncsc3c2)C[C@]1(F)c1cc(C(F)F)nc2ncnn12 [Compound 34] and tell me its recorded IC50 on Human recombinant PDE3A (hPDE3A) (Homo sapiens).
> 10 µM

Report measured IC50 on Human recombinant PDE3A (hPDE3A) (Homo sapiens); entry: C[C@@H]1CCN(C(=O)c2cnc(CF)cn2)C[C@H]1c1cc(C(F)F)nc2ncnn12 [Compound 255]
> 10 µM

Provide IC50, system Human recombinant PDE3A (hPDE3A) (Homo sapiens), entry CC(C)n1ccc2cc(C(=O)N3[C@H]4CC[C@H](c5cc(C(F)F)nc6ncnn56)[C@@H]3CC4)ccc21 [Compound 355]
0.724 µM

Please report the measured IC50 for C[C@]1(c2cc(C(F)F)nc3ncnn23)CCCN(C(=O)c2ccc3nccn3c2)C1 (single isomer, unassigned) [Compound 212] tested on Human recombinant PDE3A (hPDE3A) (Homo sapiens).
> 10 µM

Lab note: record IC50 of Cc1cc([C@@H]2CN(C(=O)c3cc(C4CC4)ncc3Cl)CC[C@H]2C)n2ncnc2n1 [Compound 391] tested on Human recombinant PDE3A (hPDE3A) (Homo sapiens).
2.24 µM

Provide IC50, system Human recombinant PDE3A (hPDE3A) (Homo sapiens), entry C[C@@H]1CCN(C(=O)c2ccc3ncsc3c2)C[C@H]1c1cc(C(F)F)nc2ncnn12 [Compound 228]
1.2 µM

For Human recombinant PDE3A (hPDE3A) (Homo sapiens), give IC50 of the listed compound: C[C@@H]1CCN(C(=O)c2ccc(C(C)(C)C)o2)C[C@H]1c1cc(C(F)F)nc2ncnn12 [Compound 136]
> 10 µM

Fill in: IC50 on Human recombinant PDE3A (hPDE3A) (Homo sapiens), entry Cc1cc(C)cc(C(=O)N2[C@H]3CC[C@H](c4cc(C(F)F)nc5ncnn45)[C@@H]2CC3)c1 [Compound 302]
7.94 µM

Check Human recombinant PDE3A (hPDE3A) (Homo sapiens) data and give IC50 for Cc1cc(C(=O)N2CC[C@@H](C)[C@H](c3cc(C(F)F)nc4ncnn34)C2)cc(C(F)(F)F)n1 [Compound 132] .
> 10 µM

Report measured IC50 on Human recombinant PDE3A (hPDE3A) (Homo sapiens); entry: Cc1nn(C)cc1C(=O)N1CC[C@@H](C)[C@H](c2cc(C(F)F)nc3ncnn23)C1 [Compound 198]
> 10 µM

Quote Human recombinant PDE3A (hPDE3A) (Homo sapiens) IC50 for entry O=C(c1cnc2ccccc2c1)N1[C@H]2CC[C@H](c3cc(C(F)F)nc4ncnn34)[C@@H]1CC2 [Compound 313] .
6.03 µM

Answer briefly: IC50 recorded on Human recombinant PDE3A (hPDE3A) (Homo sapiens) for Cc1cc(C(=O)N2CC[C@@H](C)[C@H](c3cc(C(F)F)nc4ncnn34)C2)c(Cl)cn1 [Compound 51]
> 10 µM
